Items are presented alongside their recorded Minimal inhibitory concentration MRSA^c.
Test system: Methicillin-resistant S. aureus USA 300
Type: cell-based, Staphylococcus aureus
CONDITION_CONTEXT: USA 300, 18 h
Non-standard residues stand in square brackets, D forms with d. Residues, ends and D or L forms follow the SMILES beside them. Gly(Nα-4-Cl-benzyl) = O=C(O)CNCc1ccc(Cl)cc1; N(4-F-Bzl)Gly = O=C(O)CNCc1ccc(F)cc1; NBzl(4-I)Gly = O=C(O)CNCc1ccc(I)cc1; Nphe = O=C(O)CNCc1ccccc1; Nlys = NCCCCNCC(=O)O
PROPERTY_NAME: Minimal inhibitory concentration MRSA^c (µg/mL)

>>> reported_result("NCCCCNCC(=O)N(CC(=O)N(CCCCN)CC(=O)N(CC(=O)N(CCCCN)CC(=O)N(CC(N)=O)Cc1ccc(Cl)cc1)Cc1ccc(Cl)cc1)Cc1ccc(Cl)cc1 [Compound 3] (H-[Nlys][Gly(Nα-4-Cl-benzyl)][Nlys][Gly(Nα-4-Cl-benzyl)][Nlys][Gly(Nα-4-Cl-benzyl)]-NH2)")
16
>>> reported_result("NCCCCNCC(=O)N(CC(=O)N(CCCCN)CC(=O)N(CC(=O)N(CCCCN)CC(=O)N(CC(=O)N(CCCCN)CC(=O)N(CC(N)=O)Cc1ccc(Cl)cc1)Cc1ccc(Cl)cc1)Cc1ccc(Cl)cc1)Cc1ccc(Cl)cc1 [Compound 12] (H-[Nlys][Gly(Nα-4-Cl-benzyl)][Nlys][Gly(Nα-4-Cl-benzyl)][Nlys][Gly(Nα-4-Cl-benzyl)][Nlys][Gly(Nα-4-Cl-benzyl)]-NH2)")
2
>>> reported_result("NCCCCNCC(=O)N(CC(=O)N(CCCCN)CC(=O)N(CC(=O)N(CCCCN)CC(=O)N(CC(=O)N(CCCCN)CC(=O)N(CC(N)=O)Cc1ccc(I)cc1)Cc1ccccc1)Cc1ccc(I)cc1)Cc1ccccc1 [Compound 18] (H-[Nlys][Nphe][Nlys][NBzl(4-I)Gly][Nlys][Nphe][Nlys][NBzl(4-I)Gly]-NH2)")
16
>>> reported_result("NCCCCNCC(=O)N(CC(=O)N(CCCCN)CC(=O)N(CC(=O)N(CCCCN)CC(=O)N(CC(=O)N(CCCCN)CC(=O)N(CC(=O)N(CCCCN)CC(=O)N(CC(N)=O)Cc1ccc(F)cc1)Cc1ccc(F)cc1)Cc1ccc(F)cc1)Cc1ccc(F)cc1)Cc1ccc(F)cc1 [Compound 20] (H-[Nlys][N(4-F-Bzl)Gly][Nlys][N(4-F-Bzl)Gly][Nlys][N(4-F-Bzl)Gly][Nlys][N(4-F-Bzl)Gly][Nlys][N(4-F-Bzl)Gly]-NH2)")
32
>>> reported_result("NCCCCNCC(=O)N(CC(=O)N(CCCCN)CC(=O)N(CC(=O)N(CCCCN)CC(=O)N(CC(=O)N(CCCCN)CC(=O)N(CC(=O)N(CCCCN)CC(=O)N(CC(=O)N(CCCCN)CC(=O)N(CC(N)=O)Cc1ccc(F)cc1)Cc1ccccc1)Cc1ccc(F)cc1)Cc1ccccc1)Cc1ccc(F)cc1)Cc1ccccc1 [Compound 33] (H-[Nlys][Nphe][Nlys][N(4-F-Bzl)Gly][Nlys][Nphe][Nlys][N(4-F-Bzl)Gly][Nlys][Nphe][Nlys][N(4-F-Bzl)Gly]-NH2)")
128
